# condition-context: in NMP, 295.05 K
measure: solubility (mole fraction)
Output: the number by itself.

The molecule `NC(N)=C([N+](=O)[O-])[N+](=O)[O-]` showed solubility (mole fraction) equal to 0.163

====

# condition-context: in gamma-butyrolactone, 324.55 K
measure: solubility (mole fraction)
Output: the number by itself.

The molecule `NC(N)=C([N+](=O)[O-])[N+](=O)[O-]` showed solubility (mole fraction) equal to 0.0128

====

# condition-context: in 1,4-dioxane, 358.35 K
measure: solubility (mole fraction)
Output: the number by itself.

The molecule `NC(N)=C([N+](=O)[O-])[N+](=O)[O-]` showed solubility (mole fraction) equal to 0.000357
